# PROTOCOL_SUMMARY: Pharmacokinetic study, romidepsin in plasma
# TEST_CONDITIONS: mouse, in vivo, ip, 2.5 mg/kg
# Description: Each treatment cohort was further divided into two sub-cohorts depending upon the route of administration (IP or IV). […] Mice were sacrificed (n=3 per time point) at 1, 3, 6, 18, 24, 48, and 72 hours after the treatment. Blood (˜1 mL) was collected via terminal cardiac puncture under CO2 anesthesia and collected in EDTA-coated K3EDTA tubes followed by centrifugation (2000×g for 15 min) to isolate plasma. […]
MEASUREMENT_KIND: Tmax (h)
Numbers only, in h.

Input: Which Tmax is listed for "C/C=C1\NC(=O)[C@H]2CSSCC/C=C/[C@H](CC(=O)N[C@H](C(C)C)C(=O)N2)OC(=O)[C@H](C(C)C)NC1=O" ?
Output: 6

---

# Tested on: PBMCs from healthy donors
# PROTOCOL_SUMMARY: Cell viability of normal cells (CELL TITER GLO)
# Type: cell-based, human
# TEST_CONDITIONS: Homo sapiens, PBMC, 72 h, read-out: IC50 in nM, PBMC Donor 3, 72 hrs
MEASUREMENT_KIND: IC50 (nM)
One number for each entry, in nM.

Input: I have this molecule here, "C/C=C1\NC(=O)[C@H]2CSSCC/C=C/[C@H](CC(=O)N[C@H](C(C)C)C(=O)N2)OC(=O)[C@H](C(C)C)NC1=O" , and I need its recorded IC50.
Output: 2.48

---

# PROTOCOL_SUMMARY: Single dose toxicity study (MTD)
# Format: in vivo, mice
# TEST_CONDITIONS: female, mouse, in vivo, intravenous (IV), BALB/c mice, highest dose tested 8 mg/kg
MEASUREMENT_KIND: MTD

Input: Consider the compound "C/C=C1\NC(=O)[C@H]2CSSCC/C=C/[C@H](CC(=O)N[C@H](C(C)C)C(=O)N2)OC(=O)[C@H](C(C)C)NC1=O" and give its measured MTD.
Output: > 8 mg/kg

---

# PROTOCOL_SUMMARY: Pharmacokinetic study, romidepsin in plasma
# TEST_CONDITIONS: mouse, in vivo, iv, 2.5 mg/kg
MEASUREMENT_KIND: half-life (h)
One number for each entry, in h.

Input: # query: half-life of entry "C/C=C1\NC(=O)[C@H]2CSSCC/C=C/[C@H](CC(=O)N[C@H](C(C)C)C(=O)N2)OC(=O)[C@H](C(C)C)NC1=O"
Output: 5.22

---

# Test system: TL-1 (LGL leukemia)
# PROTOCOL_SUMMARY: Cell viability assay ([…]-GLO)
# Assay type: cell-based
# TEST_CONDITIONS: Homo sapiens, 60 h, read-out: IC50 in nM at 60 Hours
MEASUREMENT_KIND: IC50 (nM)
Answers are plain numbers, in nM.

Input: Look up IC50 for this molecule: "C/C=C1\NC(=O)[C@H]2CSSCC/C=C/[C@H](CC(=O)N[C@H](C(C)C)C(=O)N2)OC(=O)[C@H](C(C)C)NC1=O"
Output: 0.7

---

# PROTOCOL_SUMMARY: Pharmacokinetic study, romidepsin in plasma
# TEST_CONDITIONS: mouse, in vivo, ip, 2.5 mg/kg
MEASUREMENT_KIND: AUC(0-t) (ng·h/mL)
One number for each entry, in ng·h/mL.

Input: So what does the record say about AUC(0-t) for "C/C=C1\NC(=O)[C@H]2CSSCC/C=C/[C@H](CC(=O)N[C@H](C(C)C)C(=O)N2)OC(=O)[C@H](C(C)C)NC1=O" ?
Output: 1920

---

# PROTOCOL_SUMMARY: Single dose toxicity study (MTD)
# Type: in vivo, mice
# TEST_CONDITIONS: female, mouse, in vivo, intraperitoneal (IP), BALB/c mice
MEASUREMENT_KIND: MTD (mg/kg)
Numbers only, in mg/kg.

Input: I would be grateful if you could share the reported MTD for C/C=C1\NC(=O)[C@H]2CSSCC/C=C/[C@H](CC(=O)N[C@H](C(C)C)C(=O)N2)OC(=O)[C@H](C(C)C)NC1=O [Romidepsin] .
Output: 5

---

# System: NKL (Natural killer cell lymphoblastic leukemia/lymphoma)
# PROTOCOL_SUMMARY: Cell viability assay ([…]-GLO)
# Type: cell-based
# TEST_CONDITIONS: Homo sapiens, 60 h, read-out: IC50 in nM at 60 Hours
# Experimental: Cell lines. The T cell lymphoma cell lines HH and H9 (both Cutaneous T Cell Lymphomas; CTCL), SUP-T1 (T Cell Lymphoblastic Lymphoma) and FEPD and SUP-M2 (ALK-negative anaplastic large cell lymphoma; ALCL), were obtained from ATCC. […] Cell Viability Assay. […] Cells were harvested after 24, 60, and 96 hours of incubation at 37° C., 5% CO2 and assayed for cell viability, using […]-GLO® (Promega) luminescence reagent, by quantifying the amount of ATP present. […]
MEASUREMENT_KIND: IC50 (nM)
Give bare numbers, in nM.

Input: Param readout = IC50; param system = NKL (Natural killer cell lymphoblastic leukemia/lymphoma); param query = "C/C=C1\NC(=O)[C@H]2CSSCC/C=C/[C@H](CC(=O)N[C@H](C(C)C)C(=O)N2)OC(=O)[C@H](C(C)C)NC1=O" ; response: value
Output: 0.7

These entries and their values trace back to patent US20250302767A1.
